The measurements presented in this section are drawn from ChEMBL document CHEMBL4715822.

tested on: Human immunodeficiency virus 1; experiment: Antiviral activity against pseudovirus HIV-1 HXB-2 harboring Env M426L mutant infected in human U87.CD4.CXCR4 cells assessed as reduction in viral infection pretreated for 30 mins before viral infection and measured after 3 days by luciferase based assay; assay type: functional, cell-based, M:B_HXB2R
Measurement Kind: IC50

• COc1cnc(-n2cnc(C)n2)c2[nH]cc(C(=O)C(=O)N3CCN(C(=O)c4ccccc4)CC3)c12 = 230 nM

* * *

experiment: Metabolic stability in human liver microsomes assessed as parent compound remaining at 3 uM incubated for 120 mins by LC-MS/MS analysis; format: ADME, Microsome; details: read-out: Stabilty
Measurement Kind: remaining at 2 h, 3 µM

• NC[C@H](NC(=O)c1ccc(-c2ccc(C(F)(F)F)c(F)c2)[nH]1)c1nc(CO)cs1 = 88.5%
• NC[C@H](NC(=O)c1ccc(-c2cc(F)c(Cl)c(F)c2)[nH]1)c1nc(CO)cs1 = 90.4%

* * *

assay: Solubility in 2 % DMSO at pH 7.4 at 500 uM incubated for 90 mins in shaker by spectrophotometry; assay type: physicochemical
Measurement Kind: solubility kinetic at […], 500 µM (µM)

- NC[C@H](NC(=O)c1ccc(-c2cc(F)c(Cl)c(F)c2)[nH]1)c1nc(CO)cs1: 100
- NC[C@H](NC(=O)c1ccc(-c2ccc(C(F)(F)F)c(F)c2)[nH]1)c1nc(CO)cs1: 100

* * *

test: Apparent permeability across apical to basolateral side in human Caco2 cells incubated for 2 hrs by LC-MS/MS analysis; format: ADME, cell-based, Caco-2; conditions: Caco-2
Measurement Kind: Papp A→B at 2 h (×10⁻⁶ cm/s)

• NC[C@H](NC(=O)c1ccc(-c2cc(F)c(Cl)c(F)c2)[nH]1)c1nc(CO)cs1 = 0.471
• NC[C@H](NC(=O)c1ccc(-c2ccc(C(F)(F)F)c(F)c2)[nH]1)c1nc(CO)cs1 = 0.602

* * *

test system: Human immunodeficiency virus 1; test: Antiviral activity against pseudovirus HIV-1 HXB-2 harboring Env N425K mutant infected in human U87.CD4.CXCR4 cells assessed as reduction in viral infection pretreated for 30 mins before viral infection and measured after 3 days by luciferase based assay; type: functional, cell-based, M:B_HXB2R
pIC50: −log10 of the molar value.
Measurement Kind: pIC50

- COc1cnc(-n2cnc(C)n2)c2[nH]cc(C(=O)C(=O)N3CCN(C(=O)c4ccccc4)CC3)c12: 8.10

* * *

assay: Cytotoxicity against human PBMC cells assessed as reduction in cell viability incubated for 1 hr followed by complete medium addition and measured after 48 hrs by XTT assay; format: cell-based
Listed here: items and their measured CC50 at 49 h.
Measurement Kind: CC50 at 49 h (µM)

* NC[C@@H](NC(=O)c1ccc(-c2ccc(C(F)(F)F)cc2)[nH]1)c1ncc(CO)s1 | 61
* NC[C@H](NC(=O)c1ccc(-c2cc(F)c(Cl)c(F)c2)[nH]1)c1nc(CO)cs1 | 61
* NC[C@H](NC(=O)c1ccc(-c2ccc(C(F)(F)F)c(F)c2)[nH]1)c1nc(CO)cs1 | 38.7

* * *

assay: Antiviral activity against HIV-1 3B infected in human MT2 cells assessed as reduction in viral infection pretreated for 30 mins before viral infection and measured after 4 days by ELISA based multi cycle infection assay; type: functional, cell-based; conditions: Human immunodeficiency virus 1, M:B_HXB2R
Measurement Kind: IC50 (nM)

• CC(C)(O)c1csc([C@@H](CN)NC(=O)c2ccc(-c3cc(F)c(Cl)c(F)c3)[nH]2)n1 = 800
• COC(C)(C)c1csc([C@@H](CN)NC(=O)c2ccc(-c3cc(F)c(Cl)c(F)c3)[nH]2)n1 = 6100
• CNC[C@@H](NC(=O)c1ccc(-c2cc(F)c(Cl)c(F)c2)[nH]1)c1nc(CO)cs1 = 400
• Cc1c(F)cc(-c2ccc(C(=O)N[C@H](CN)c3nc(CO)cs3)[nH]2)cc1F = 600
